tested on: Saccharomyces cerevisiae; assay: protein stability index of tFT-peptide fusion (C-terminal peptide) (PSI (0-1 scale)); higher = more stable (slower turnover); settings: genetic background: wild type; temperature: 30 C;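 also: PSI is a weighted mean of sequencing reads over stability bins, variants kept only with over 10 reads, mCherry proximal and sfGFP distal, peptide attached via GGGS linker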
# protein stability index values compiled below
Write the number on its own, no unit after it.

Worked cases, protein stability index given:
ITLFPKGLRANK
0.686
FSPLTFLLSFPL
0.679
PSAPPTPLAPSH
0.678

### Prompt Item under review: "PGAGKRLIERVK" . Reported protein stability index?
### Response 0.593

### Prompt // lookup protein stability index for "PLLGPSCLRPPS"
### Response 0.791

### Prompt If you can, please state the reported protein stability index value of "RQFRKKNTLKSE" .
### Response 0.65

### Prompt I'd like to know its protein stability index. The sequence in question is "TGAGGPGPRNRK"
### Response 0.774

### Prompt Which protein stability index value belongs to "CVFVRCVDCMSG" ?
### Response 0.465

### Prompt // protein stability index lookup, key: "LASCVTRTMAWD"
### Response 0.664

### Prompt Tell me the measured protein stability index of "GGGGVVRAWGLR" , please.
### Response 0.738

### Prompt Recorded protein stability index of "RLSGACILLSLV" , please.
### Response 0.388

### Prompt Endpoint output: protein stability index of "PNTNIRTHCQWI" . Value?
### Response 0.709

### Prompt Using the record for "TSYEAKKKWQVI" , report its protein stability index.
### Response 0.645

---

test system: Saccharomyces cerevisiae; assay: protein stability index of tFT-peptide fusion (C-terminal peptide) (PSI (0-1 scale)); higher = more stable (slower turnover); details: genetic background: wild type; temperature: 30 C
Parameter: protein stability index
The answer should be written as a number, with no unit following it.

Previously resolved entries follow.
HPLYWRCVVVLN
0.15
RVCKALKNDNLI
0.73
KEIRNNEKKKKK
0.657
QQKKKTKGNNEV
0.661
KKQKPKVTSTKT
0.712
LPCGRGQLVGSQ
0.677

### Prompt protein stability index lookup needed for "IKKKKKKKQRKQ" , thanks.
### Response 0.65

### Prompt Which protein stability index is reported for this sequence? "HDSAGVCFHYWL"
### Response 0.644

### Prompt Fill in: protein stability index of "LVRCPLGVPGAS" is ___
### Response 0.708

### Prompt What measured protein stability index goes with "VVLFGAGGSWGG" ?
### Response 0.726

---

tested on: Saccharomyces cerevisiae; experiment: protein stability index of tFT-peptide fusion (C-terminal peptide) (PSI (0-1 scale)); higher = more stable (slower turnover); conditions: genetic background: cdc53-1; temperature: 37 C
# label = YES if protein stability index >= 0.5 else NO

// below: answered sequences
SLLFVFVSVGCI
NO
ALLVLTVSYVFS
NO
VFHMFGWCGGAR
YES
SSVCYFGLLFIV
YES
TGYRYVGRFFVV
YES

### Prompt Threshold query (protein stability index >= 0.5) on "VFFLFAVCSVLV"
### Response NO

### Prompt // inclusive: protein stability index at least 0.5? input: "VQWPLLVVGCMG"
### Response NO

### Prompt Has "PSLAASFWRVVG" a recorded protein stability index greater than or equal to 0.5?
### Response YES

### Prompt Answer whether protein stability index of "RLSLCLAVLFLV" is greater than or equal to 0.5.
### Response YES

### Prompt Is the recorded value of protein stability index equal to or greater than 0.5 for this sequence? "RIIDRVSRLIML"
### Response YES

### Prompt Can "PVWLSFHFFLCA" be said to have protein stability index at or above 0.5?
### Response NO

### Prompt Is reported protein stability index greater than or equal to 0.5 here: "VVWVYSMLFSIW"
### Response NO

### Prompt In plain terms: is recorded protein stability index at least 0.5 for "PPPLLVRPWFLV" ?
### Response YES

### Prompt Please check the record "YDVQIEFCVVEV" and state if its protein stability index is at or above 0.5.
### Response YES

### Prompt Exam item: decide whether the reported protein stability index for "FWCVFVFFVCVG" is at least 0.5.
### Response NO

### Prompt Exam item: decide whether the reported protein stability index for "SVFRFLFLALLV" is at least 0.5.
### Response NO

### Prompt Could you verify whether the entry "WRVVVSCALHVC" shows protein stability index of no less than 0.5?
### Response NO

### Prompt Could you tell me if the measured protein stability index of "CFVPFFLPLCAF" reaches 0.5 or more?
### Response NO

### Prompt Tell me whether protein stability index is at least 0.5 here: "WVVWWFACVFGV"
### Response NO
